The measurements presented in this section are drawn from the supplement of paper PMC10567573.

B1: FBXO39 (parent)
chain: PSRVHASEVESAVWYVKKFGRYLE

Variants of: B1
Assay: protein stability index of a GFP-peptide fusion (GPS, HEK-293T) (PSI 1-6); higher = more stable;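 also: lentivirally expressed fusions sorted by FACS into six bins by GFP to DsRed ratio, PSI derived from sequencing read proportions per bin multiplied by bin number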
Settings: c terminus: a fixed tail appended
What protein stability index was measured for each of the following?
Reply: number alone, nothing else.

In: Which protein stability index is listed for PSRVHASEVESAVWYVKKFGRFLE ?
Out: 1.91

In: Quick one: protein stability index for MSRVHASEVESAVWYVKKFGRYLE ?
Out: 1.87

In: Can you share its protein stability index? I mean this variant: PSRVHASEVESAVWYEKKFGRYLE
Out: 2.96

In: For the variant shown here, PSRVHASEVESAVWYVGKFGRYLE , give the reported protein stability index.
Out: 2.57

In: Name the reported protein stability index value associated with the variant PSRVHASEVESAVWWVKKFGRYLE
Out: 1.15

In: Recorded protein stability index of PSRVHASEVESAVWYVKKFGRYDE , please.
Out: 2.9

In: Param item = PSRVHASEVRSAVWYVKKFGRYLE ; retrieve measured protein stability index.
Out: 2.37

In: Would you mind telling me what protein stability index value was observed for PSRVHASEVESAVWYVKKFKRYLE ?
Out: 2.19

In: # input variant: PSFVHASEVESAVWYVKKFGRYLE ; wanted: its protein stability index
Out: 1.49

In: Reported protein stability index for PSRVHASEVESAVWYVKSFGRYLE : what is it?
Out: 1.81

In: Which protein stability index value belongs to PSRVHASEVYSAVWYVKKFGRYLE ?
Out: 2

In: If you can, please state the reported protein stability index value of PSRVHASEVESAKWYVKKFGRYLE .
Out: 1.78

In: I have this variant here, PSRVHASEVESAVWYVKKFGRDLE , and I need its recorded protein stability index.
Out: 2.89

In: Would you mind telling me what protein stability index value was observed for PGRVHASEVESAVWYVKKFGRYLE ?
Out: 1.94

In: Record request: protein stability index value, item PSRVHASEVESAVWYVKKFARYLE
Out: 3.14

In: Fill blank: measured protein stability index of the variant PSRVHASEVESFVWYVKKFGRYLE is ____.
Out: 1.28

In: I have this variant here, PSRVHASEVESALWYVKKFGRYLE , and I need its recorded protein stability index.
Out: 2.5

In: Query (variant): PSRVHASEVESAVWYVKKFLRYLE ; field requested: protein stability index
Out: 1.75

In: Name the recorded protein stability index for PSRVHASEVESAVWYVYKFGRYLE .
Out: 2.66

In: Need protein stability index of PSRVHASEVESAVWYVKKFGRILE , thanks.
Out: 1.85

In: What does the record list as protein stability index for PSRVHASEVESAVWYVKRFGRYLE ?
Out: 1.5

In: Please report the recorded protein stability index for PSRVHASEVEKAVWYVKKFGRYLE .
Out: 2.91
